# HDAC 6 at 50 nM annotations
target entity: HDAC 6 (Homo sapiens, UniProt Q9UBN7)
Sequence (Q9UBN7 whole entry): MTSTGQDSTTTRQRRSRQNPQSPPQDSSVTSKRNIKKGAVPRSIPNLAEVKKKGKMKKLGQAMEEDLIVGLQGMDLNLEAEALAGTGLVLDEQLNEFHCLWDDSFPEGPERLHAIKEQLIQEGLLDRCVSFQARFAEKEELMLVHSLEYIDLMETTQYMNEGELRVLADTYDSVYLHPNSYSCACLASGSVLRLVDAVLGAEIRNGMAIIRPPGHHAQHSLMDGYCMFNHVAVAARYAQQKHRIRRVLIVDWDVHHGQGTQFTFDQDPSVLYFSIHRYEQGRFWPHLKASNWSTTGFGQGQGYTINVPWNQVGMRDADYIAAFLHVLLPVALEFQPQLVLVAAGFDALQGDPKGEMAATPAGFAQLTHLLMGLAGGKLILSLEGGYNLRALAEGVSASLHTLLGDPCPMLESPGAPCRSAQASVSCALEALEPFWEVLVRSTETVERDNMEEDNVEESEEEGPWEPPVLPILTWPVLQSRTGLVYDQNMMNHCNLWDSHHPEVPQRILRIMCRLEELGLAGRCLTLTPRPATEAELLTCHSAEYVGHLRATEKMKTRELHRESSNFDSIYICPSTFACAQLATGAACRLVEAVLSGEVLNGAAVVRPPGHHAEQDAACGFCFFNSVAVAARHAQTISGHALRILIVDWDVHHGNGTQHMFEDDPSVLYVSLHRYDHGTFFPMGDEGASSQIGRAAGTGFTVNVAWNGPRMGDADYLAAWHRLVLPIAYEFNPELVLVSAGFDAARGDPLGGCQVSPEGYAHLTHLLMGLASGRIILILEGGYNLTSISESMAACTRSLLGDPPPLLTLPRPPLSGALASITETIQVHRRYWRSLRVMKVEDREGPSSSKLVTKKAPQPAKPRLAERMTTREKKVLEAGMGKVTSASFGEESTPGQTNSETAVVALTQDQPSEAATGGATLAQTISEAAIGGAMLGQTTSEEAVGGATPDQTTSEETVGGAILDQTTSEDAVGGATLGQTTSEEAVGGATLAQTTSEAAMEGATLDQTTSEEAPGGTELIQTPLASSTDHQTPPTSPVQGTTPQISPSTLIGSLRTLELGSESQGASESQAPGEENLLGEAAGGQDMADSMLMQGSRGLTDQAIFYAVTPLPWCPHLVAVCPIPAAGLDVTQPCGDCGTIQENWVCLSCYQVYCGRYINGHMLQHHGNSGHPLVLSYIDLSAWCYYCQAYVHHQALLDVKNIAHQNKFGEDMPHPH
method: HDAC 6 activity at fixed concentration (Table 2)
Assay type: biochemical
Design: unit not given here
conditions used: compound at 50 nM

compound: O=C(NO)[C@@H]1CCc2ccccc2O1
target entity: HDAC 6 (Homo sapiens, UniProt Q9UBN7)
HDAC 6 at 50 nM: 46
//
compound: O=C(NO)C1CCc2ccc(OCCc3ccccc3)cc2O1 (centres unmarked)
target entity: HDAC 6 (Homo sapiens, UniProt Q9UBN7)
HDAC 6 at 50 nM: 0
//
compound: O=C(NO)C1CCc2cccc(NS(=O)(=O)c3cccc4ccccc34)c2O1 (centres unmarked)
target entity: HDAC 6 (Homo sapiens, UniProt Q9UBN7)
HDAC 6 at 50 nM: 0
//
compound: O=C(Nc1cccc2c1OC(C(=O)NO)CC2)OCc1ccccc1Cl (centres unmarked)
target entity: HDAC 6 (Homo sapiens, UniProt Q9UBN7)
HDAC 6 at 50 nM: 23
//
compound: O=C(Cc1c[nH]c2ccccc12)Nc1ccc2c(c1)CCC(C(=O)NO)O2 (centres unmarked)
target entity: HDAC 6 (Homo sapiens, UniProt Q9UBN7)
HDAC 6 at 50 nM: 55
//
compound: O=C(Nc1ccc2c(c1)CC[C@@H](C(=O)NO)O2)c1cc(Cl)cc(Cl)c1
target entity: HDAC 6 (Homo sapiens, UniProt Q9UBN7)
HDAC 6 at 50 nM: 20
//
compound: O=C(NO)C1CCc2ccc(-c3ccc(Cl)c(Cl)c3)cc2O1 (centres unmarked)
target entity: HDAC 6 (Homo sapiens, UniProt Q9UBN7)
HDAC 6 at 50 nM: 39
//
compound: O=C(NO)C1CCc2cc(C#CCOc3ccc(F)cc3)ccc2O1 (centres unmarked)
target entity: HDAC 6 (Homo sapiens, UniProt Q9UBN7)
HDAC 6 at 50 nM: 42

Source: patent US20240051931A1
